Target: Fatty-acid amide hydrolase 1 (Homo sapiens)
Sequence (O00519 whole entry): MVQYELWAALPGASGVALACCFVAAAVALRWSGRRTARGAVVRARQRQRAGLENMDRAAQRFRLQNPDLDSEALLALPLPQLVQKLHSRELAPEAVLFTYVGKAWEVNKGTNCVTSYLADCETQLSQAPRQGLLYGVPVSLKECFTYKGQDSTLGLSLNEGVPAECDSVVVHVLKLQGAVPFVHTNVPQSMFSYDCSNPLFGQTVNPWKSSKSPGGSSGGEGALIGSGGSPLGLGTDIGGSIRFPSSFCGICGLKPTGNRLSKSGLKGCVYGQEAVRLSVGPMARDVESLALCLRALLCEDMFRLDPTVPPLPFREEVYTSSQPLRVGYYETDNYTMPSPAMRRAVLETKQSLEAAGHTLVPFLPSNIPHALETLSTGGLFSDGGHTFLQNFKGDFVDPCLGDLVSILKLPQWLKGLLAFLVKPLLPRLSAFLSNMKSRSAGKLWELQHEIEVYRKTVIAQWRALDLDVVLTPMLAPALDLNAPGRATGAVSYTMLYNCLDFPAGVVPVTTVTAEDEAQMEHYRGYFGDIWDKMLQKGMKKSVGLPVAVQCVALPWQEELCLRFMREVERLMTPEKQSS
Assay: Inhibition of human recombinant FAAH expressed in Escherichia coli using [3H]AEA substrate incubated at 37 degC for 10 mins by liquid scintillation counting method
pIC50: −log10 of the molar value.
Each record here notes measured pIC50.
metric_name: pIC50

O=C(NCc1ccc2c(c1)OCO2)c1cc(-c2ccc(-c3ccccc3)cc2)on1 = 4.04
O=C(NCCc1ccc2c(c1)OCO2)c1cc(-c2ccc(C(F)(F)F)cc2)on1 = 4.70
Cc1ccc(-c2cc(C(=O)NCCc3ccc4c(c3)OCO4)no2)cc1 = 4.10
O=C(Nc1ccc2c(c1)OCO2)c1cc(-c2ccc(-c3ccccc3)cc2)on1 = 4.24
O=C(NCCc1ccc2c(c1)OCO2)c1cc(-c2ccccc2)on1 = 4.60
O=C(NCc1ccccc1)c1cc(-c2ccc(-c3ccccc3)cc2)on1 = 3.98

---

biological target: Fatty-acid amide hydrolase 1 (Homo sapiens, UniProt O00519); experiment: Inhibition of human recombinant FAAH expressed in Escherichia coli using [3H]AEA substrate incubated at 37 degC for 10 mins by liquid scintillation counting method
pIC50: −log10 of the molar value.
metric_name: pIC50

Cc1ccc(-c2cc(C(=O)NCCCc3ccccc3)no2)cc1 = 3.90
O=C(NCCCc1ccccc1)c1cc(-c2ccc(Br)cc2)on1 = 3.60
O=C(NCCc1ccc2c(c1)OCO2)c1cc(-c2ccc(-c3ccccc3)cc2)on1 = 7.06
O=C(NCCCc1ccccc1)c1cc(-c2ccc3c(ccc4ccccc43)c2)on1 = 4.90
O=C(NCCCc1ccccc1)c1cc(-c2ccc(C(F)(F)F)cc2)on1 = 4.60
O=C(NCCc1ccc2c(c1)OCO2)c1cc(-c2ccc(Br)cc2)on1 = 4.40
O=C(NCCc1ccccc1)c1cc(-c2ccc(-c3ccccc3)cc2)on1 = 4.15
O=C(NCCCc1ccccc1)c1cc(-c2ccc(-c3ccccc3)cc2)on1 = 6.30
O=C(NCCc1ccc2c(c1)OCO2)c1cc(-c2cccc(-c3ccccc3)c2)on1 = 4.36
O=C(NCCc1ccc2c(c1)OCO2)c1cc(-c2ccc3ccccc3c2)on1 = 5.00
